# measurementTarget: human GSK3α (Homo sapiens, UniProt P49840)
# Construct: Full length human GSK3α or GSK3B expressed as N-terminal GST fusion proteins; GST (N); purchased Carna Biosciences (Japan); host or cells: baculovirus host
# Sequence (P49840 whole entry, the tested form may be a part): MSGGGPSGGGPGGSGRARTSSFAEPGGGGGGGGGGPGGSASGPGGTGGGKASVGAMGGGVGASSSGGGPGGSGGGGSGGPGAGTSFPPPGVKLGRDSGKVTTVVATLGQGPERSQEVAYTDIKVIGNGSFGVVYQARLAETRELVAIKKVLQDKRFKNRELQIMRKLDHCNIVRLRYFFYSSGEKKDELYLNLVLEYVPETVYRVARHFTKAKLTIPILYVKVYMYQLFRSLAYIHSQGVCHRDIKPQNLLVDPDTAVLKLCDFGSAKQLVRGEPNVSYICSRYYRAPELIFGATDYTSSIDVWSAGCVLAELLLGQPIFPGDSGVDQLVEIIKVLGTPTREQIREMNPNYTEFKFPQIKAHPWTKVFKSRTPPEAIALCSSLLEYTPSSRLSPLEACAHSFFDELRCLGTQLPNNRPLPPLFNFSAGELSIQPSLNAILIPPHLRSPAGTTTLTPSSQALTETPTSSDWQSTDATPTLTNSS
# experimentDescription: In vitro enzymatic activity assay, GSK3α
# Format: biochemical
# experimentalConditions: 1.0 mM ATP, 1.0 μM peptide substrate, 120 min, 25° C, read-out: Enzyme GSK3α (IC50)
endpointName: log10 IC50 (log10 of the value in nM)
// units: nM (pre-log); metric: IC50; scale: log10

compound CO[C@H](C)c1cc(C)c(-n2cnc(N)c(C(=O)Nc3cncc([C@@H](C)N)c3)c2=O)c(C)c1 (single isomer, unassigned) [Example 175] , log10 IC50 observed: 1.51

Please fill in: log10 IC50 reported for CCOc1cc(C)c(-n2cnc(N)c(C(=O)Nc3cccc([C@@H](C)NC)c3)c2=O)c(Cl)c1 (atropisomer, axis not shown) = 0.80

Sample `CCOc1cc(Cl)c(-n2cnc(N)c(C(=O)Nc3cnnc(C(N)=O)c3)c2=O)c(Cl)c1` ; log10 IC50 observed: 0.98

The value of log10 IC50 measured for the compound `COCc1cc(C)c(-n2cnc(N)c(C(=O)Nc3cnnc(C(N)=O)c3)c2=O)c(C)c1` turned out to be 1.81

Sure, the documented log10 IC50 for `CCNCc1cncc(NC(=O)c2c(N)ncn(-c3c(Cl)cc(CC(F)F)cc3Cl)c2=O)c1` is 0.90

The value of log10 IC50 measured for the compound Cc1cc(C(F)CF)cc(C)c1-n1cnc(N)c(C(=O)Nc2cncc([C@H]3CCCCN3)c2)c1=O (single isomer, unassigned) [Example 113] turned out to be 0.48

For reference, reported log10 IC50 for COc1cc(Cl)c(-n2cnc(N)c(C(=O)Nc3cc(F)cc([C@H]4CCCCN4)c3)c2=O)c(Cl)c1 (single isomer, unassigned) stands at 0.32

// log10 IC50 value for `CCNCc1cncc(NC(=O)c2c(N)ncn(-c3c(Cl)cc(C(=O)OCC)cc3Cl)c2=O)c1` : 0.52

Form field log10 IC50, entry `Cc1cc(OC(F)(F)F)cc(C)c1-n1cnc(N)c(C(=O)Nc2cncc([C@H]3CCCCN3)c2)c1=O` : 1.00

Notebook: `CCOCc1cc(C)c(-n2cnc(N)c(C(=O)Nc3cncc([C@H]4CCCCN4)c3)c2=O)c(C)c1` , log10 IC50 read as 0.69

Where do these numbers come from? They come from patent US20260327191A1.
